System: HT-29
assaySummary: SRB colorimetric assay of cell growth and viability, HT-29
Type: cell-based, human
conditions: 48 hours exposure, SRB; read-out: LC50 HT-29
Method: The finality of this assay is to interrupt the growth of a “in vitro” tumor cell culture by means a continued exhibition of the cells to the sample to be testing. […] Cells are seeded in 96 well microtiter plates, at 5×10^3 cells per well in aliquots of 195 μL medium, and they are allowed to attach to the plate surface by growing in drug free medium for 18 hours. […] Optical densities are read on a automated spectrophotometric plate reader at a single wavelength of 490 nm. […]
Where a SMILES comes first, the peptide text is derived from it. Bridges are numbered along the chain shown (N, C = ends). [ ]: non-standard residue; d: D form. The star is where a group is joined. d(aIle) = CC[C@H](C)[C@@H](N)C(=O)O; d(aThr) = C[C@@H](O)[C@@H](N)C(=O)O; Hexanoyl(5-Me) = CC(C)CCCC(=O)*; Orn = NCCC[C@H](N)C(=O)O; Dhb = C/C=C(\N)C(=O)O
log10 of CC50 values by entry
measurementName: log10 of CC50 (log10 of the value in µM)

| compound | tgt | log10 of CC50 |
| --- | --- | --- |
| CC[C@H](C)[C@@H](NC(=O)[C@H](CCCN)NC(=O)[C@H]1CCCN1C(=O)[C@H](NC(=O)[C@@H](NC(=O)[C@@H](NC(=O)[C@H](NC(=O)CCCC(C)C)C(C)C)[C@@H](C)O)C(C)C)C(C)C)C(=O)N[C@H]1C(=O)N[C@H]([C@@H](C)CC)C(=O)N[C@H](C(C)C)C(=O)N[C@@H](Cc2ccccc2)C(=O)NCC(=O)N[C@@H](C(C)C)C(=O)O[C@@H]1C [Compound 65, [Gly^2]-KF] ({Hexanoyl(5-Me)}-[dV]TV[dV][dP][Orn][d(aIle)][d(aThr)][d(aIle)][dV]FGV; ester 8-C) | HT-29 | 0.72 |
| C/C=C1\NC(=O)[C@H](Cc2ccc(I)cc2)NC(=O)[C@@H](C(C)C)NC(=O)[C@@H]([C@@H](C)CC)NC(=O)[C@H](NC(=O)[C@H](NC(=O)[C@H](CCCN)NC(=O)[C@H]2CCCN2C(=O)[C@H](NC(=O)[C@@H](NC(=O)[C@@H](NC(=O)[C@H](NC(=O)CC[C@@H](C)CC)C(C)C)[C@@H](C)O)C(C)C)C(C)C)[C@@H](C)CC)[C@@H](C)OC(=O)[C@H](C(C)C)NC1=O [Compound 72, [Phe(4-I)^3, (4S)-MeHex^14]-KF] | HT-29 | -0.36 |
| C/C=C1\NC(=O)[C@H](Cc2ccccc2)NC(=O)[C@@H](C(C)C)NC(=O)[C@@H]([C@@H](C)CC)NC(=O)[C@H](NC(=O)[C@H](NC(=O)[C@H](CCCC[N+](C)(C)C)NC(=O)[C@H]2CCCN2C(=O)[C@H](NC(=O)[C@@H](NC(=O)[C@@H](NC(=O)[C@H](NC(=O)CC[C@@H](C)CC)C(C)C)[C@@H](C)O)C(C)C)C(C)C)[C@@H](C)CC)[C@@H](C)OC(=O)[C@H](C(C)C)NC1=O [Compound 93, [N^ε(Me)3-Lys^8, (4S)-MeHex^14]-KF] | HT-29 | -0.36 |
| C/C=C1\NC(=O)[C@H](Cc2ccc(Cl)c(Cl)c2)NC(=O)[C@@H](C(C)C)NC(=O)[C@@H]([C@@H](C)CC)NC(=O)[C@H](NC(=O)[C@H](NC(=O)[C@H](CCCN)NC(=O)[C@H]2CCCN2C(=O)[C@H](NC(=O)[C@@H](NC(=O)[C@@H](NC(=O)[C@H](NC(=O)CC[C@@H](C)CC)C(C)C)[C@@H](C)O)C(C)C)C(C)C)[C@@H](C)CC)[C@@H](C)OC(=O)[C@H](C(C)C)NC1=O [Compound 70, [Phe(3,4-Cl2)^3, (4S)-MeHex^14]-KF] | HT-29 | -0.39 |
| C/C=C1\NC(=O)[C@H](Cc2c[nH]c3ccccc23)NC(=O)[C@@H](C(C)C)NC(=O)[C@@H]([C@@H](C)CC)NC(=O)[C@H](NC(=O)[C@H](NC(=O)[C@H](CCCN)NC(=O)[C@H]2CCCN2C(=O)[C@H](NC(=O)[C@@H](NC(=O)[C@@H](NC(=O)[C@H](NC(=O)CCCC(C)C)C(C)C)[C@@H](C)O)C(C)C)C(C)C)[C@@H](C)CC)[C@@H](C)OC(=O)[C@H](C(C)C)NC1=O [Compound 68, [Trp^3]-KF] ({Hexanoyl(5-Me)}-[dV]TV[dV][dP][Orn][d(aIle)][d(aThr)][d(aIle)][dV]W[Dhb]V; ester 8-C) | HT-29 | 0.56 |
| C/C=C1\NC(=O)[C@H](Cc2ccccc2)NC(=O)[C@@H](C(C)C)NC(=O)[C@@H]([C@@H](C)CC)NC(=O)[C@H](NC(=O)[C@H](NC(=O)[C@H](CCCN)NC(=O)[C@H]2CCCN2C(=O)[C@H](NC(=O)[C@@H](NC(=O)[C@@H](NC(=O)[C@H](NC(=O)CC[C@@H](C)[C@H]2CC[C@H]3[C@@H]4CC[C@@H]5C[C@H](OC(=O)C(F)(F)F)CC[C@]5(C)[C@H]4CC[C@]23C)C(C)C)[C@@H](C)OC(=O)C(F)(F)F)C(C)C)C(C)C)[C@@H](C)CC)[C@@H](C)OC(=O)[C@H](C(C)C)NC1=O | HT-29 | 0.08 |
| C/C=C1\NC(=O)[C@H](Cc2ccccc2)NC(=O)[C@@H](C(C)C)NC(=O)[C@@H]([C@@H](C)CC)NC(=O)[C@H](NC(=O)[C@H](NC(=O)[C@H](CCCNC(=O)C(F)(F)F)NC(=O)[C@H]2CCCN2C(=O)[C@H](NC(=O)[C@@H](NC(=O)[C@@H](NC(=O)[C@H](NC(=O)CC[C@@H](C)CC)C(C)C)[C@@H](C)O)C(C)C)C(C)C)[C@@H](C)CC)[C@@H](C)OC(=O)[C@H](C(C)C)NC1=O | HT-29 | -0.35 |
| C/C=C1\NC(=O)[C@H](Cc2ccccc2)NC(=O)[C@@H](C(C)C)NC(=O)[C@@H]([C@@H](C)CC)NC(=O)[C@H](NC(=O)[C@H](NC(=O)[C@H](CCCNC(=O)C(F)(F)F)NC(=O)[C@H]2CCCN2C(=O)[C@H](NC(=O)[C@@H](NC(=O)[C@@H](NC(=O)[C@H](NC(=O)CC[C@@H](C)CC)C(C)C)[C@@H](C)OC(=O)C(F)(F)F)C(C)C)C(C)C)[C@@H](C)CC)[C@@H](C)OC(=O)[C@H](C(C)C)NC1=O | HT-29 | -0.36 |
| C/C=C1\NC(=O)[C@H](Cc2ccccc2)NC(=O)[C@@H](C(C)C)NC(=O)[C@@H]([C@@H](C)CC)NC(=O)[C@H](NC(=O)[C@H](NC(=O)[C@H](CCCN)NC(=O)[C@H]2CCCN2C(=O)[C@H](NC(=O)[C@@H](NC(=O)[C@@H](NC(=O)[C@H](NC(=O)CC[C@@H](C)CC)C(C)C)[C@@H](C)OC(=O)C(F)(F)F)C(C)C)C(C)C)[C@@H](C)CC)[C@@H](C)OC(=O)[C@H](C(C)C)NC1=O | HT-29 | 0.06 |
